# System Tested: Serine/threonine-protein kinase pim-3 (Homo sapiens) (UniProt Q86V86)
# Reported Conditions: at 1 µM
Metric: residual activity (%)

INSERT INTO measurements (smiles_text, system_tested, measurement_unit, quantitative_readout) VALUES
  ('COc1cccc(-c2cc(=O)c3ccccc3o2)c1N', 'Serine/threonine-protein kinase pim-3 (Homo sapiens) (UniProt Q86V86)', '%', 89),
  ('CC(=O)c1ccc(N2CCOCC2)cc1O', 'Serine/threonine-protein kinase pim-3 (Homo sapiens) (UniProt Q86V86)', '%', 96),
  ('Oc1c2ccccc2c2c3c(cccc13)N=N2', 'Serine/threonine-protein kinase pim-3 (Homo sapiens) (UniProt Q86V86)', '%', 75),
  ('O=c1c2ccccc2[nH]c(=S)n1CCN1CCC(=C(c2ccc(F)cc2)c2ccc(F)cc2)CC1', 'Serine/threonine-protein kinase pim-3 (Homo sapiens) (UniProt Q86V86)', '%', 98),
  ('c1ccc(-c2n[nH]c3c2oc2ccccc23)cc1', 'Serine/threonine-protein kinase pim-3 (Homo sapiens) (UniProt Q86V86)', '%', 92),
  ('CC#CC(=O)Nc1cc2c(Nc3ccc(F)c(Cl)c3)ncnc2cn1', 'Serine/threonine-protein kinase pim-3 (Homo sapiens) (UniProt Q86V86)', '%', 91),
  ('Cc1ccc(NC2=CC(=O)c3sc(C)nc3C2=O)cc1', 'Serine/threonine-protein kinase pim-3 (Homo sapiens) (UniProt Q86V86)', '%', 91),
  ('Oc1ccc(Nc2nc(-c3ccc(Cl)cc3)cs2)cc1', 'Serine/threonine-protein kinase pim-3 (Homo sapiens) (UniProt Q86V86)', '%', 93),
  ('O=C1NC(=O)c2c1c1c3ccccc3[nH]c1c1[nH]c3cc(Br)ccc3c21', 'Serine/threonine-protein kinase pim-3 (Homo sapiens) (UniProt Q86V86)', '%', 29),
  ('COc1ccc(C(=O)Nc2sc3c(c2C(N)=O)CCCC3)cc1OC', 'Serine/threonine-protein kinase pim-3 (Homo sapiens) (UniProt Q86V86)', '%', 92),
  ('COc1cc2ncnc(N3CCN(C(=O)Nc4ccc(Oc5ccccc5)cc4)CC3)c2cc1OC', 'Serine/threonine-protein kinase pim-3 (Homo sapiens) (UniProt Q86V86)', '%', 91),
  ('Cc1cncc2cccc(S(=O)(=O)N3CCCN(C(=O)CN)C[C@H]3C)c12', 'Serine/threonine-protein kinase pim-3 (Homo sapiens) (UniProt Q86V86)', '%', 92),
  ('CN(C)CCCn1cc(C2=C(c3c[nH]c4ccccc34)C(=O)NC2=O)c2ccccc21', 'Serine/threonine-protein kinase pim-3 (Homo sapiens) (UniProt Q86V86)', '%', 22),
  ('O=C1c2ccccc2-[n+]2ccc3c([nH]c4ccccc43)c21', 'Serine/threonine-protein kinase pim-3 (Homo sapiens) (UniProt Q86V86)', '%', 81),
  ('CN(C)c1ccc(/C=C2\C(=O)Nc3ccccc32)cc1', 'Serine/threonine-protein kinase pim-3 (Homo sapiens) (UniProt Q86V86)', '%', 106),
  ('CC(=O)O/N=C1\C(=C2\C(=O)Nc3cc(Br)ccc32)Nc2ccccc21', 'Serine/threonine-protein kinase pim-3 (Homo sapiens) (UniProt Q86V86)', '%', 84),
  ('O=Nc1c(-c2c(O)[nH]c3ccccc23)[nH]c2ccccc12', 'Serine/threonine-protein kinase pim-3 (Homo sapiens) (UniProt Q86V86)', '%', 94),
  ('COc1ccc(S(=O)(=O)N(CCO)c2ccccc2CN(C)C/C=C/c2ccc(Cl)cc2)cc1', 'Serine/threonine-protein kinase pim-3 (Homo sapiens) (UniProt Q86V86)', '%', 86),
  ('CO[C@@H]1[C@H](N(C)C(=O)c2ccccc2)C[C@H]2O[C@]1(C)n1c3ccccc3c3c4c(c5c6ccccc6n2c5c31)C(=O)NC4', 'Serine/threonine-protein kinase pim-3 (Homo sapiens) (UniProt Q86V86)', '%', 93),
  ('Nc1ccc2ncnc(NCCc3ccc(Oc4ccccc4)cc3)c2c1', 'Serine/threonine-protein kinase pim-3 (Homo sapiens) (UniProt Q86V86)', '%', 90),
  ('Ic1cccc(CSc2nnc(-c3ccncc3)o2)c1', 'Serine/threonine-protein kinase pim-3 (Homo sapiens) (UniProt Q86V86)', '%', 78),
  ('Cn1nc2c3c(cccc31)C(=O)c1ccccc1-2', 'Serine/threonine-protein kinase pim-3 (Homo sapiens) (UniProt Q86V86)', '%', 80),
  ('CCC(=O)Nc1ccc2ncnc(Nc3cccc(Br)c3)c2c1', 'Serine/threonine-protein kinase pim-3 (Homo sapiens) (UniProt Q86V86)', '%', 92),
  ('COc1cc2ncnc(Nc3ccc(O)c(Br)c3)c2cc1OC', 'Serine/threonine-protein kinase pim-3 (Homo sapiens) (UniProt Q86V86)', '%', 87),
  ('Cc1cccc(-c2[nH]c(C(C)(C)C)nc2-c2ccc3c(c2)OCO3)n1', 'Serine/threonine-protein kinase pim-3 (Homo sapiens) (UniProt Q86V86)', '%', 103),
  ('Nc1nc(Nc2ccc(S(N)(=O)=O)cc2)nn1C(=S)Nc1c(F)cccc1F', 'Serine/threonine-protein kinase pim-3 (Homo sapiens) (UniProt Q86V86)', '%', 95),
  ('O=C1NC(=O)c2cc(Nc3ccc(F)cc3)c(Nc3ccc(F)cc3)cc21', 'Serine/threonine-protein kinase pim-3 (Homo sapiens) (UniProt Q86V86)', '%', 94),
  ('CC[n+]1c(/C=C/N(C)c2ccccc2)n(-c2ccccc2)c2ccc(-c3nc4ccccc4s3)cc21', 'Serine/threonine-protein kinase pim-3 (Homo sapiens) (UniProt Q86V86)', '%', 105),
  ('Cc1ccc(S(=O)(=O)/C=C/C#N)cc1', 'Serine/threonine-protein kinase pim-3 (Homo sapiens) (UniProt Q86V86)', '%', 91),
  ('Cc1nc2cc3nc(-c4cccs4)cnc3cc2n1C', 'Serine/threonine-protein kinase pim-3 (Homo sapiens) (UniProt Q86V86)', '%', 101);
